# Test system: ATP;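 note: ATP exposure 15 min at 22 °C before imaging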
# Test Summary: switch fluorescence ratio, 500 uM ATP over buffer (Cy3 cluster intensity, sum of 5 cycles each) (fold (ratio)); higher = stronger signal-on switching upon ATP binding; sequences stand for … in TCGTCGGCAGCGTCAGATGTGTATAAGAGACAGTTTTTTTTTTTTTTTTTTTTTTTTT…TC
# Assay Conditions: aptamer strand: ATP DNA aptamer (quencher-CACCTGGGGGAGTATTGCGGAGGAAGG + anchor), 100 nM annealed; ATP concentration: 500 uM
Listed sequences paired with reported switch fluorescence ratio
Just the number, please.

Sample records with switch fluorescence ratio:
CGTAGAGGGC ... 0.986
TGAATTTTTT ... 0.993
AGTAACCTTG ... 1.02

Exam item: GET /values?readout=switch fluorescence ratio&item= CAGGGGGATT
Marked response: 1.03

Exam item: GET /values?readout=switch fluorescence ratio&item= GGAATAGGGT
Marked response: 0.98

Exam item: GET /values?readout=switch fluorescence ratio&item= AACGTACTTG
Marked response: 1.54

Exam item: GET /values?readout=switch fluorescence ratio&item= GCGGTAAGGG
Marked response: 1.02

Exam item: GET /values?readout=switch fluorescence ratio&item= CTTTTTTTGT
Marked response: 0.995

Exam item: GET /values?readout=switch fluorescence ratio&item= TGGTCTTTTA
Marked response: 0.985

Exam item: GET /values?readout=switch fluorescence ratio&item= AATGGATATG
Marked response: 1.02

Exam item: GET /values?readout=switch fluorescence ratio&item= ATAGCCGGAC
Marked response: 1.08

Exam item: GET /values?readout=switch fluorescence ratio&item= CGAAAATTAA
Marked response: 1

Exam item: GET /values?readout=switch fluorescence ratio&item= CGGGGACAGA
Marked response: 0.984

Exam item: GET /values?readout=switch fluorescence ratio&item= GCGAGGGCAA
Marked response: 1.72

Exam item: GET /values?readout=switch fluorescence ratio&item= GGCATAGGGG
Marked response: 1.01

Exam item: GET /values?readout=switch fluorescence ratio&item= TTTTTTTTGA
Marked response: 0.998

Exam item: GET /values?readout=switch fluorescence ratio&item= AGCTATTTGC
Marked response: 0.983

Exam item: GET /values?readout=switch fluorescence ratio&item= TCCACTCTTC
Marked response: 0.991

Exam item: GET /values?readout=switch fluorescence ratio&item= CATACGGTTT
Marked response: 1.05

Exam item: GET /values?readout=switch fluorescence ratio&item= GAAGTGAGGT
Marked response: 1.01

Exam item: GET /values?readout=switch fluorescence ratio&item= TTTTCGCCGA
Marked response: 1.03
